Target: Cathepsin L (Homo sapiens)
Sequence (P07711 114-333, species assumed): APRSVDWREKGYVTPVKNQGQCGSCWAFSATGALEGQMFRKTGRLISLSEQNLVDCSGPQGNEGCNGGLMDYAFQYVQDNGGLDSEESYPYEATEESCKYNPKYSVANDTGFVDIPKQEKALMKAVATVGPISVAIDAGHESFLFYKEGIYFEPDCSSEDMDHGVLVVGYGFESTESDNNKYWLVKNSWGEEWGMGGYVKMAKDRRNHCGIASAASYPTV
Test: Cathepsin L inhibition assay, fluorogenic peptide substrate (selectivity for Cat. S over Cat. L)
Format: biochemical
Settings: ratio of cathepsin L inhibition constant to cathepsin S inhibition constant
Observable: Selectivity for Cat. S over Cat. L

Please review the entries below; each comes with its answer.
* C[C@@H](CN1CCc2cc(F)ccc21)NC(=O)O[C@@H](CC1CCCC1)Cn1cnc2ccccc21 [Example 6] | ++ (++, >100)
* C[C@@H](CNc1ccc(OC(F)F)cc1)NC(=O)O[C@@H](CC1CCCC1)Cn1ccc(C(F)(F)F)n1 [Example 7] | ++ (++, >100)
* CC(C)(C)C[C@H](Cn1cnc2cc(Cl)c(Cl)cc21)OC(=O)N[C@@H](CO)CN1CCc2cc(F)ccc21 [Example 1] | + (+, >10)
* CC(C)(C)C[C@@H](Cn1cnc2ccccc21)OC(=O)N[C@@H](CO)CN1CCc2cc(F)ccc21 [Example 12] | ++ (++, >100)
* C[C@@H](CN1CCc2cc(F)ccc21)NC(=O)O[C@@H](CC1CCCC1)Cn1cnc2cc(Cl)c(Cl)cc21 [Example 9] | + (+, >10)
* C[C@@H](CNc1ccc(OC(F)(F)F)cc1)NC(=O)O[C@@H](CC1CCCC1)Cn1cnc2cc(Cl)c(Cl)cc21 [Example 10] | + (+, >10)
* C[C@@H](CN1CC(C)(C)c2cc(F)ccc21)NC(=O)O[C@H](Cn1cnc2ccccc21)CC(C)(C)C [Example 11] | ++ (++, >100)
* C[C@@H](CN1CCc2cc(F)ccc21)NC(=O)O[C@H](Cn1cnc2ccccc21)CC(C)(C)C [Example 4] | ++ (++, >100)
* CC(C)(C)C[C@@H](Cn1cnc2cc(Cl)c(Cl)cc21)OC(=O)N[C@@H](CO)CN1CCc2cc(F)ccc21 [Example 2] | + (+, >10)
* C[C@@H](CNc1ccc(OC(F)F)cc1)NC(=O)O[C@@H](CC1CCCC1)Cn1cnc2cc(Cl)c(Cl)cc21 [Example 8] | ++ (++, >100)

Prompt line: Specify measured Selectivity for Cat. S over Cat. L for C[C@@H](CN1CCc2cc(F)ccc21)NC(=O)O[C@H](CN1CCOCC1)CC(C)(C)C [Example 5] .
Response line: ++ (++, >100)

---

Molecular target: Cathepsin K (Homo sapiens)
Sequence (P43235 115-329, species assumed): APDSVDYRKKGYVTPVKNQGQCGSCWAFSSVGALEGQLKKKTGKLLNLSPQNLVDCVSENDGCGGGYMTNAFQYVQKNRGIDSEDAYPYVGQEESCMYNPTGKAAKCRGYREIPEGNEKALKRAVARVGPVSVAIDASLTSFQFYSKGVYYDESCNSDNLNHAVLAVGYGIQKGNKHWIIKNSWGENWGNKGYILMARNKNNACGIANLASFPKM
Assay: Cathepsin K inhibition assay, fluorogenic peptide substrate (selectivity for Cat. S over Cat. K)
Type: biochemical
Conditions: ratio of cathepsin K inhibition constant to cathepsin S inhibition constant
Observable: Selectivity for Cat. S over Cat. K

Please review the entries below; each comes with its answer.
• C[C@@H](CN1CCc2cc(F)ccc21)NC(=O)O[C@@H](CC1CCCC1)Cn1cnc2cc(Cl)c(Cl)cc21 [Example 9] = + (+, >10)
• CC(C)(C)C[C@H](Cn1cnc2cc(Cl)c(Cl)cc21)OC(=O)N[C@@H](CO)CN1CCc2cc(F)ccc21 [Example 1] = − (−, <10)
• C[C@@H](CN1CCc2cc(F)ccc21)NC(=O)O[C@H](CN1CCOCC1)CC(C)(C)C [Example 5] = − (−, <10)
• CC(C)(C)C(Cn1cnc2cc(Cl)c(Cl)cc21)OC(=O)N[C@@H](CO)CN1CCc2cc(F)ccc21 (mixture of isomers) [Example 3] = + (+, >10)
• C[C@@H](CNc1ccc(OC(F)F)cc1)NC(=O)O[C@@H](CC1CCCC1)Cn1ccc(C(F)(F)F)n1 [Example 7] = + (+, >10)
• C[C@@H](CN1CCc2cc(F)ccc21)NC(=O)O[C@@H](CC1CCCC1)Cn1cnc2ccccc21 [Example 6] = + (+, >10)

Prompt line: Specify measured Selectivity for Cat. S over Cat. K for CC(C)(C)C[C@@H](Cn1cnc2ccccc21)OC(=O)N[C@@H](CO)CN1CCc2cc(F)ccc21 [Example 12] .
Response line: − (−, <10)
